Values compiled from patent US8785692B2.

Assay: logP (neutral / acidic, pH 2.3)
Value Type: logP

Examples from the recorded data:
Compound | Value Type | Assay Value
CCN(C)C=Nc1cc(C)c(/C(C)=N/OCC[Si](C)(C)C)cc1C [Compound 44] | logP | 6.21
C#CC(C)O/N=C(\C)c1cc(C)c(N=CN(C)CC)cc1C (stereo not shown) [Compound 15] | logP | 4
CCN(C)C=Nc1cc(C)c(/C(C)=N/OC(C2CC2)C2CC2)cc1C [Compound 20] | logP | 5.33
CCN(C)C=Nc1cc(C)c(/C(C)=N/OCC(C)C)cc1C [Compound 13] | logP | 4.98
CCN(C)C=Nc1cc(C)c(/C(C)=N/OCc2ccc(Cl)nc2)cc1C [Compound 32] | logP | 3.95
C=CCO/N=C(\C)c1cc(C)c(N=CN(C)CC)cc1C [Compound 35] | logP | 4.02
CCN(C)C=Nc1cc(C)c(/C(C)=N/OC)cc1C [Compound 24] | logP | 3.33
CCN(C)C=Nc1cc(C)c(/C=N/OC(C)C)cc1C [Compound 40] | logP | 4.41

Looking up CCN(C)C=Nc1cc(C)c(/C=N/OCC2CC2)cc1C [Compound 47] , I found its logP recorded as 3.95

Looking up CCN(C)C=Nc1cc(C)c(/C(C)=N/CCCC(C)(C)C)cc1C [Compound 46] , I found its logP recorded as 4.75

Looking up CCN(C)C=Nc1cc(C)c(/C=N/OCCC(C)(C)C)cc1C [Compound 48] , I found its logP recorded as 5.89

Looking up CCN(C)C=Nc1cc(C)c(/C(C)=N/OCC(F)(F)F)cc1C [Compound 17] , I found its logP recorded as 4.24

Looking up CCN(C)C=Nc1cc(C)c(/C(C)=N/OCc2cccc(Oc3ccccc3)c2)cc1C [Compound 22] , I found its logP recorded as 5.77

Looking up CCN(C)C=Nc1cc(C)c(/C(C)=N/OC2CCCC2)cc1C [Compound 14] , I found its logP recorded as 5.24

Looking up CCN(C)C=Nc1cc(C)c(/C(C)=N/OC/C=C/c2ccccc2)cc1C [Compound 19] , I found its logP recorded as 5.2

Looking up CCN(C)C=Nc1cc(C)c(/C(C)=N/OCc2ccc(Cl)c(Cl)c2)cc1C [Compound 30] , I found its logP recorded as 5.79

Looking up CCO/N=C(\C)c1cc(C)c(N=CN(C)CC)cc1C [Compound 23] , I found its logP recorded as 3.86

Looking up CCN(C)C=Nc1cc(C)c(/C(C)=N/OC(C)(C)C)cc1C [Compound 9] , I found its logP recorded as 5.17

Looking up CCCO/N=C(\C)c1cc(C)c(N=CN(C)CC)cc1C [Compound 37] , I found its logP recorded as 4.43

---

Assay: logP (neutral / acidic, pH 2.3)
Settings: pH 2.3
Value Type: logP
Would you mind answering with just the numeric figure?

Examples from the recorded data:
Molecule | logP
CCN(C)C=Nc1cc(C)c(/C(C)=N/OC(C)(C)C)cc1C | 2.19
CCN(C)C=Nc1cc(C)c(/C(C)=N/OC/C=C/c2ccccc2)cc1C | 2.32

Looking up "CCN(C)C=Nc1cc(C)c(/C(C)=N/OCCc2ccc(Cl)cc2)cc1C" , I found its logP recorded as 2.56

Looking up "CCN(C)C=Nc1cc(C)c(/C(C)=N/OCc2ccc(C(C)(C)C)cc2)cc1C" , I found its logP recorded as 3.05

Looking up CCN(C)C=Nc1cc(C)c(/C(C)=N/OC(C)c2ccc(Cl)cc2)cc1C (centres unmarked) , I found its logP recorded as 2.46

Looking up "Cc1cc(C=O)c(C)cc1N" , I found its logP recorded as 1.34

Looking up "Cc1cc(C=NOCc2ccccc2)c(C)cc1N" , I found its logP recorded as 4.22

Looking up "CCN(C)C=Nc1cc(C)c(/C(C)=N/OCc2cccc(Oc3ccccc3)c2)cc1C" , I found its logP recorded as 2.69
